Test name: Liver microsomal metabolism assay, human
Format: in vitro ADME
Recorded conditions: pH 7.4; human liver microsomes 0.5 mg/mL, compound 1 μM, 37° C.; read-out: Human liver microsome assay t1/2
Readout: half-life at 1 μM (min)
Use min as the unit, but write only the number.

Q: Consider the compound [2H]c1cc(C(=O)Nc2n[nH]c3ccc(Cc4cc(F)cc(F)c4)cc23)c(NC2CCOCC2)c([2H])c1N1CCN(C([2H])([2H])[2H])CC1 . State its measured half-life at 1 μM.
Ans: 28.8

Q: Consider the compound [2H]C1([2H])N(C)C([2H])([2H])C([2H])([2H])N(c2ccc(C(=O)Nc3n[nH]c4ccc(Cc5cc(F)cc(F)c5)cc34)c(NC3CCOCC3)c2)C1([2H])[2H] . State its measured half-life at 1 μM.
Ans: 44.3

Q: Consider the compound [2H]C([2H])([2H])N1CCN(c2ccc(C(=O)Nc3n[nH]c4ccc(Cc5cc(F)cc(F)c5)cc34)c(NC3CCOCC3)c2)CC1 . State its measured half-life at 1 μM.
Ans: 39.9

Q: Consider the compound [2H]C([2H])(c1cc(F)cc(F)c1)c1ccc2[nH]nc(NC(=O)c3ccc(N4CCN(C([2H])([2H])[2H])CC4)cc3NC3CCOCC3)c2c1 . State its measured half-life at 1 μM.
Ans: 30.8

Q: Consider the compound CN1CCN(c2ccc(C(=O)Nc3n[nH]c4ccc(Cc5cc(F)cc(F)c5)cc34)c(NC3CCOCC3)c2)CC1 [Entrectinib, reference compound] . State its measured half-life at 1 μM.
Ans: 28.8

Q: Consider the compound [2H]c1cc(C(=O)Nc2n[nH]c3ccc(Cc4cc(F)cc(F)c4)cc23)c(NC2CCOCC2)c([2H])c1N1CCN(C)CC1 . State its measured half-life at 1 μM.
Ans: 38.3

###

Test name: Pharmacokinetic assay in rats
Format: in vivo, SD rat
Recorded conditions: male SD rats, i.g., 3 mg/kg
Readout: F (%)
Use % as the unit, but write only the number.

Solved cases below.
[2H]C([2H])([2H])N1CCN(c2ccc(C(=O)Nc3n[nH]c4ccc(Cc5cc(F)cc(F)c5)cc34)c(NC3CCOCC3)c2)CC1    7.43
CN1CCN(c2ccc(C(=O)Nc3n[nH]c4ccc(Cc5cc(F)cc(F)c5)cc34)c(NC3CCOCC3)c2)CC1 [Entrectinib, reference compound]    9.23
[2H]C1([2H])CC(Nc2cc(N3CCN(C)CC3)ccc2C(=O)Nc2n[nH]c3ccc(Cc4cc(F)cc(F)c4)cc23)CC([2H])([2H])O1    11.78
[2H]C([2H])(c1cc(F)cc(F)c1)c1ccc2[nH]nc(NC(=O)c3ccc(N4CCN(C)CC4)cc3NC3CCOCC3)c2c1    13.67

Attention now turns to another entry.
Q: Consider the molecule [2H]C([2H])([2H])N1C([2H])([2H])C([2H])([2H])N(c2ccc(C(=O)Nc3n[nH]c4ccc(Cc5cc(F)cc(F)c5)cc34)c(NC3CCOCC3)c2)C([2H])([2H])C1([2H])[2H] . State its measured F.
Ans: 13.03

###

Entries and their Tmax values follow.
Test name: Pharmacokinetic assay in rats
Format: in vivo, SD rat
Recorded conditions: rat, plasma, po; male SD rats, i.g., 3 mg/kg
Use h as the unit, but write only the number.

Solved cases below.
[2H]C([2H])([2H])N1C([2H])([2H])C([2H])([2H])N(c2ccc(C(=O)Nc3n[nH]c4ccc(Cc5cc(F)cc(F)c5)cc34)c(NC3CCOCC3)c2)C([2H])([2H])C1([2H])[2H]    3.33
[2H]C1([2H])CC(Nc2cc(N3CCN(C)CC3)ccc2C(=O)Nc2n[nH]c3ccc(Cc4cc(F)cc(F)c4)cc23)CC([2H])([2H])O1    3.33
[2H]C([2H])([2H])N1CCN(c2ccc(C(=O)Nc3n[nH]c4ccc(Cc5cc(F)cc(F)c5)cc34)c(NC3CCOCC3)c2)CC1    3.33

Q: Consider the compound CN1CCN(c2ccc(C(=O)Nc3n[nH]c4ccc(Cc5cc(F)cc(F)c5)cc34)c(NC3CCOCC3)c2)CC1 [Entrectinib, reference compound] . State its measured Tmax.
Ans: 2.17

Q: Consider the compound [2H]C([2H])(c1cc(F)cc(F)c1)c1ccc2[nH]nc(NC(=O)c3ccc(N4CCN(C)CC4)cc3NC3CCOCC3)c2c1 . State its measured Tmax.
Ans: 4
